Give measured Kd for each item. Keep answers brief.
Write the value in nM as a bare number.

Find the measured Kd: item CC(C)(C)c1cc(NC(=O)Nc2ccc(NC(=O)c3ncccc3O)cc2)no1 , target or system UniProt:P07949.
Sequence (P07949 whole entry): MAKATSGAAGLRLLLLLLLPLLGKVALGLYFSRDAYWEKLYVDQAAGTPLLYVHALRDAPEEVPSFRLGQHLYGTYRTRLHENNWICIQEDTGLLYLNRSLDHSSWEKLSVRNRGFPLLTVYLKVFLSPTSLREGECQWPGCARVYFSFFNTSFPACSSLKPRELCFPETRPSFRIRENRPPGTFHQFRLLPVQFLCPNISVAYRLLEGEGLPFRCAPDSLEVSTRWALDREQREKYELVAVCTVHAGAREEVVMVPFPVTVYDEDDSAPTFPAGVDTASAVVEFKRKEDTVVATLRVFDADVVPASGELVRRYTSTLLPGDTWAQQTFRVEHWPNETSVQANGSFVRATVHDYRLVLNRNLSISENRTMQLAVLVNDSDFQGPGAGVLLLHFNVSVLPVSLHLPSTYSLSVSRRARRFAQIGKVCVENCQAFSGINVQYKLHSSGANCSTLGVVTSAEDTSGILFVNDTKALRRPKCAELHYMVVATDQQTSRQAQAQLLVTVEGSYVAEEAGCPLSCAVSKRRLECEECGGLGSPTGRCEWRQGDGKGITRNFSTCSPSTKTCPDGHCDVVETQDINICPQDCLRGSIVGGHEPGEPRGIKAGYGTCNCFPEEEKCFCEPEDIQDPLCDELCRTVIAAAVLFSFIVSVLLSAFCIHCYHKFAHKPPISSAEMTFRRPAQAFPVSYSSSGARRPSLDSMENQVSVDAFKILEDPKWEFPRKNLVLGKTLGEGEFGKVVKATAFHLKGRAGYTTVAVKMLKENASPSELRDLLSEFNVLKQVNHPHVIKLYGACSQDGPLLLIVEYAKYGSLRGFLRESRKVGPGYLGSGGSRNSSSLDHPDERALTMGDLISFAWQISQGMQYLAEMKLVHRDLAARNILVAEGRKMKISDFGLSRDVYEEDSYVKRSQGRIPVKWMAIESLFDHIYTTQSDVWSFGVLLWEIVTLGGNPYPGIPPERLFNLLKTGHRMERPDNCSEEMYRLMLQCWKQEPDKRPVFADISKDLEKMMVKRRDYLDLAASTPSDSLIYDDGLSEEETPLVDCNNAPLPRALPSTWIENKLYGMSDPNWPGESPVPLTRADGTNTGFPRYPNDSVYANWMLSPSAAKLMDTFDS
4.7

Record CC(C)(C)c1cc(NC(=O)Nc2ccc(NC(=O)c3cn4c(n3)sc3ccccc34)cc2)no1 : what is its Kd with UniProt:P07949?
3

###

Answer each item with its documented Cmax.
- Experiment Description: Cmax in nude mouse at 10 mg/kg, po
- Type: ADME, organism-based
- Set-up: dose 10 mg/kg, route oral
- Setup Conditions: in vivo
I only need the number, in nM, no unit after it.

Data request, read-out Cmax, for CC(C)(C)c1cc(NC(=O)Nc2ccc(NC(=O)c3cn4c(n3)sc3ccccc34)cc2)no1
2360

# lookup: Cmax of CC(C)(C)c1cc(NC(=O)Nc2ccc(NC(=O)c3cc4ccccc4cn3)cc2)no1
1310

###

- System: MV4-11
- Experiment Description: Antitumor activity against human MV411 cells assessed as inhibition of cell proliferation
- Assay type: functional, cell-based
Observable: IC50
Express the reported value numerically, then name its unit.

Look at this compound and give its reported IC50. CC(C)(C)c1cc(NC(=O)Nc2ccc(C(=O)Nc3cccnc3)cc2)no1
199 nM

Which IC50 is listed for Cc1ccc2sc(C(=O)Nc3ccc(NC(=O)Nc4cc(C(C)(C)C)on4)cc3)cc2c1 ?
0.85 nM

Can you share its IC50? I mean this compound: CC(C)(C)c1cc(NC(=O)Nc2ccc(NC(=O)c3cccc(O)n3)cc2)no1
46.7 nM

Which IC50 is reported for this compound? CC(C)(C)c1cc(NC(=O)Nc2ccc(NC(=O)Cc3ccccc3)cc2)no1
1090 nM

Reported IC50, compound CC(C)(C)c1cc(NC(=O)Nc2ccc(NC(=O)c3cc4ccccc4cn3)cc2)no1 : ____
0.29 nM

IC50 lookup needed for CC(C)(C)c1cc(NC(=O)Nc2ccc(NC(=O)c3cn4c(n3)sc3ccccc34)cc2)no1 , thanks.
0.44 nM

Sample CC(C)(C)c1cc(NC(=O)Nc2ccc(NC(=O)c3ccc4ccccc4c3)cc2)no1 — what was its IC50?
3.1 nM

State the recorded IC50 for this entry: CC(C)(C)c1cc(NC(=O)Nc2ccc(C(=O)Nc3ccccc3)cc2)no1
101 nM

What does the data say about its IC50? Entry: CC(C)(C)c1cc(NC(=O)Nc2ccc(NC(=O)c3cccnc3)cc2)no1
159 nM

Requested read-out: IC50. Entry: CC(C)(C)c1cc(NC(=O)Nc2ccc(NC(=O)c3ncccc3O)cc2)no1
0.71 nM

Could you share which IC50 value was measured for CC(C)(C)c1cc(NC(=O)Nc2ccc(NC(=O)c3ccccn3)cc2)no1 ?
1.6 nM

Could you tell me which IC50 is on file for CC(C)(C)c1cc(NC(=O)Nc2ccc(C(=O)Nc3ccccn3)cc2)no1 ?
104 nM

I am curious: what IC50 value has been reported for CC(C)(C)c1cc(NC(=O)Nc2ccc(NC(=O)c3ccccc3)cc2)no1 ?
30 nM

Item under review: CC(C)(C)c1cc(NC(=O)Nc2ccc(NC(=O)C3CCNCC3)cc2)no1 . Reported IC50?
10500 nM

Item under review: CC(C)(C)c1cc(NC(=O)Nc2ccc(C(=O)Nc3ccncc3)cc2)no1 . Reported IC50?
414 nM

Recorded IC50 for CC(C)(C)c1cc(NC(=O)Nc2ccc(NC(=O)c3ccncc3)cc2)no1 , please?
132 nM

Requested read-out: IC50. Entry: CC(C)(C)c1cc(NC(=O)Nc2ccc(NC(=O)c3nccc4ccccc34)cc2)no1
2.8 nM

###

- Measured Target: Vascular endothelial growth factor receptor 2 (Homo sapiens, UniProt P35968)
- Sequence (P35968 whole entry): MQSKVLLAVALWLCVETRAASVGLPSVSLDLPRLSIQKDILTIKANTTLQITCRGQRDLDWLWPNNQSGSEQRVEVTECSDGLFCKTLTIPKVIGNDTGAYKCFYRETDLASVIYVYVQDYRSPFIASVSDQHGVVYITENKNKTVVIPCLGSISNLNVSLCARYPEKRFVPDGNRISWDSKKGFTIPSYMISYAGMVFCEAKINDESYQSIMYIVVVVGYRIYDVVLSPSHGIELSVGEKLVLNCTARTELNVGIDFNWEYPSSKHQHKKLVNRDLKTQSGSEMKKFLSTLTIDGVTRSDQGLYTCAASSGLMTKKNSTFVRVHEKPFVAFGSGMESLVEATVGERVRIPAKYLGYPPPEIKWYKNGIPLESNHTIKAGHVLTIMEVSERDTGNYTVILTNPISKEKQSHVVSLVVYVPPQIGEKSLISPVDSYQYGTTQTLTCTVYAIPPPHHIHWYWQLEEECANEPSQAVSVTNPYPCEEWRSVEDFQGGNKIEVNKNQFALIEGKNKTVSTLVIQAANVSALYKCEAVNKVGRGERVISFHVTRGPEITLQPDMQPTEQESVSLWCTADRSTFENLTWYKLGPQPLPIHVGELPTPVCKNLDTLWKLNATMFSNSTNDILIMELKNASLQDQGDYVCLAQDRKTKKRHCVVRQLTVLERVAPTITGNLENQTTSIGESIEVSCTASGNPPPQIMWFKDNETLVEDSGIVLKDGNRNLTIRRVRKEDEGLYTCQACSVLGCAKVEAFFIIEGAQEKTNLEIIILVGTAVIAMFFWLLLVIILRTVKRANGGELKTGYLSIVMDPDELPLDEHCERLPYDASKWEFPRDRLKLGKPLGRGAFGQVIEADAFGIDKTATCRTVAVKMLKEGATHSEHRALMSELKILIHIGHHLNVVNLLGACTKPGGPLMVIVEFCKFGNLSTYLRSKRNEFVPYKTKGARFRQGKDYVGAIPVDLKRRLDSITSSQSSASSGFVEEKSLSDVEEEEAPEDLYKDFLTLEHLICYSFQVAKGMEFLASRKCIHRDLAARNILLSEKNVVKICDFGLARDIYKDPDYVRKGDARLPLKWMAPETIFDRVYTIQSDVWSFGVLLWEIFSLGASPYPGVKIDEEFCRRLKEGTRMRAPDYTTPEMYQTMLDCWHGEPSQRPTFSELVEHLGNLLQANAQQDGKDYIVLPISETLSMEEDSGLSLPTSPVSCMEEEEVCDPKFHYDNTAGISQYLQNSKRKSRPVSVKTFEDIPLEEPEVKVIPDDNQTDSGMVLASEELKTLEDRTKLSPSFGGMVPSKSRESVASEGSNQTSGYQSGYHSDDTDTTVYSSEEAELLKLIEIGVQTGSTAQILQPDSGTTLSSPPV
Observable: Kd

Would you kindly share the measured Kd for CC(C)(C)c1cc(NC(=O)Nc2ccc(NC(=O)c3cn4c(n3)sc3ccccc34)cc2)no1 ?
> 200 nM

###

- Measured Target: Receptor-type tyrosine-protein kinase FLT3 (Homo sapiens, UniProt P36888)
- Sequence (P36888 whole entry): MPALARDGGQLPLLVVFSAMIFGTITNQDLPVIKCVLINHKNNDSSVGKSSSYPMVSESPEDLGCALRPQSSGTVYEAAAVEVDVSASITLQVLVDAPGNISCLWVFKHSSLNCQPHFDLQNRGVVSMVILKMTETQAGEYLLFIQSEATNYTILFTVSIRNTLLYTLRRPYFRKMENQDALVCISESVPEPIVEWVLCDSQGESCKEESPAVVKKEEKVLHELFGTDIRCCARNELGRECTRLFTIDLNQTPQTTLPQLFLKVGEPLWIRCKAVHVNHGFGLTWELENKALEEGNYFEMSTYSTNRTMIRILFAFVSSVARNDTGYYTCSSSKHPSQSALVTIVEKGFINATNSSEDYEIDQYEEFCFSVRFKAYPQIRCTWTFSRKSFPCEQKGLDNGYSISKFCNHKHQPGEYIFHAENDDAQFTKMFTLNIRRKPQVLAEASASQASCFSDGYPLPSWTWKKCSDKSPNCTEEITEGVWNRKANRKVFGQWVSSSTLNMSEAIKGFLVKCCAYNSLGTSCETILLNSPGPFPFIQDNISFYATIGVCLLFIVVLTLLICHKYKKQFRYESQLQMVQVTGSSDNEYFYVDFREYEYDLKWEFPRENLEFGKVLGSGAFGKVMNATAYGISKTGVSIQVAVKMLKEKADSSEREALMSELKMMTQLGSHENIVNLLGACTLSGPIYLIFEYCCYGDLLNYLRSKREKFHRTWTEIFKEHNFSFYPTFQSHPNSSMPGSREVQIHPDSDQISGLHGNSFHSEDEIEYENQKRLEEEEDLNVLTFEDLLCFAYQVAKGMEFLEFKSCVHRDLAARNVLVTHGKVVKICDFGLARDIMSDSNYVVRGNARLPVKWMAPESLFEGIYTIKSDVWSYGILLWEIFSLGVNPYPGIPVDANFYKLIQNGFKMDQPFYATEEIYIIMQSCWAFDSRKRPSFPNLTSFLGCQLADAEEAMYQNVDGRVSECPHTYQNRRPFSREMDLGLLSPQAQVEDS
I'd be grateful if you could share measured pKd for these entries.
// pKd here means minus log10 of the molar concentration (mol/L)

Can you share its pKd? I mean this compound: CC(C)(C)c1cc(NC(=O)Nc2ccc(NC(=O)c3cccnc3)cc2)no1
7.82

pKd for CC(C)(C)c1cc(NC(=O)Nc2ccc(NC(=O)Cc3ccccc3)cc2)no1 ?
6.29

Give the measured pKd of CC(C)(C)c1cc(NC(=O)Nc2ccc(C(=O)Nc3ccccc3)cc2)no1 .
8.13

Consider the compound CC(C)(C)c1cc(NC(=O)Nc2ccc(NC(=O)c3ccc4ccccc4c3)cc2)no1 and give its measured pKd.
9.12

Look up pKd for this compound: CC(C)(C)c1cc(NC(=O)Nc2ccc(C(=O)Nc3ccccn3)cc2)no1
8.09

Query (compound): CC(C)(C)c1cc(NC(=O)Nc2ccc(NC(=O)c3cn4c(n3)sc3ccccc34)cc2)no1 ; field requested: pKd
8.80

# input compound: CC(C)(C)c1cc(NC(=O)Nc2ccc(NC(=O)c3ncccc3O)cc2)no1 ; wanted: its pKd
9.13

###

The next entries give measured Kd for Macrophage colony-stimulating factor 1 receptor (Homo sapiens, UniProt P07333).
Field: numeric (nM). Do not append units.

Field request: Kd | item: CC(C)(C)c1cc(NC(=O)Nc2ccc(NC(=O)c3cn4c(n3)sc3ccccc34)cc2)no1
10

Could you share which Kd value was measured for CC(C)(C)c1cc(NC(=O)Nc2ccc(NC(=O)c3ncccc3O)cc2)no1 ?
4.4
